Listed next: entries and their corresponding %Inh.
- System: NEK10
- settings: concentration: 1 μM, replicates: in singlicate; n = 1;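 further: KINOMEscan kinase panel screen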
Give just the numeric value; % need not be written.

Past entries and their recorded results:
1. O=C(O)C(F)(F)F.O=c1[nH]ccc2nc(N[C@@H]3CCNC3)nc(Nc3ccc4c(c3)S(=O)(=O)CC4)c12 : 95.3
2. Cc1ccc(O)cc1Nc1ccnc2cc(-c3ccc(CN4CCCCC4)o3)ccc12 : 0

query: Provide measured %Inh value, entry: Cc1ccccc1CC(=O)N1CCc2cc(-c3cn(C)c4ncnc(N)c34)ccc21
result: 0

query: Provide measured %Inh value, entry: CN(C)CCOc1ccc(-c2cc(-c3ccc(Cl)c(O)c3)c(-c3ccncc3)[nH]2)cc1.Cl.Cl
result: 0

query: Provide measured %Inh value, entry: CCn1cnc2c(NCc3ccccc3)ncnc21
result: 14

query: Provide measured %Inh value, entry: COc1ccc(C2=C(Nc3cccc(O)c3)C(=O)NC2=O)cc1
result: 42

query: Provide measured %Inh value, entry: NCCC(NC(=O)c1cc(Br)c(-c2ccnc3[nH]ccc23)s1)c1ccccc1.O=C(O)C(F)(F)F.O=C(O)C(F)(F)F (stereo not drawn)
result: 9

query: Provide measured %Inh value, entry: Cc1ccc(O)cc1Nc1ccnc2ccc(C(C)(C)C)cc12
result: 27

query: Provide measured %Inh value, entry: COc1cccc(CC(=O)N2CCc3cc(-c4cn(C)c5ncnc(N)c45)ccc32)c1
result: 7

query: Provide measured %Inh value, entry: O=C(Nc1n[nH]c2cc(-c3cccs3)ccc12)C1CC1
result: 27

query: Provide measured %Inh value, entry: COc1cc(Nc2nccc(N3CCC(NS(=O)(=O)c4ccc(NC(C)=O)cc4)CC3)n2)cc(OC)c1OC
result: 17

query: Provide measured %Inh value, entry: Nc1ncc(-c2cn[nH]c2)c2scc(-c3ccc4c(c3)CCN4C(=O)Cc3ccccc3)c12
result: 22

###

- Test system: SYK
- settings: concentration: 1 μM, replicates: in singlicate; n = 1
attribute measured: %Inh (%)
Give just the numeric value; % need not be written.

Past entries and their recorded results:
1) Fc1cc(Cl)ccc1Nc1ccnc2cc(-c3ccc(CN4CCSCC4)o3)ccc12 : 51
2) CN(C)c1ncnc2nc[nH]c12 : 0
3) O=C(Nc1n[nH]c2nc(-c3cccc(O)c3)ccc12)C1CC1 : 40
4) CC(=O)Nc1cn2nc(Oc3cccc(NC(=O)c4cccc(C(F)(F)F)c4)c3)ccc2n1 : 14
5) Cc1ccc(Nc2ccnc(Nc3ccc(C)c(F)c3)n2)cc1O.Cl : 56
6) Cc1ccc(-c2ccc3occ(-c4ccc(S(C)=O)cc4)c3c2)nn1 (stereo not shown) : 5
7) Cc1ccc(NC(=O)c2ccc(Cl)c(Cl)c2)cc1-c1ccc(C(=O)Nc2ccncc2)cc1 : 21
8) Cc1ccc(C)c(NC(=O)Nc2ccc(C)c(-c3ccc(C(=O)Nc4ccncc4)cc3)c2)c1 : 17

query: Provide measured %Inh value, entry: CNc1nccc(-c2ccc3c(N)n[nH]c3c2)n1
result: 23

query: Provide measured %Inh value, entry: O=C1NC(=O)C(c2ccccc2Cl)=C1Nc1cccc(Cl)c1
result: 0

query: Provide measured %Inh value, entry: Cn1cc(-c2cnc(N)c3c(-c4ccc5c(c4)CCN5C(=O)Cc4ccccc4)csc23)cn1
result: 16
